Recorded values, source paper PMC3672506.

- EXPERIMENTAL TARGET: EGFR-TK in A431 cell membranes (Homo sapiens)
- Sequence (P00533 25-1210): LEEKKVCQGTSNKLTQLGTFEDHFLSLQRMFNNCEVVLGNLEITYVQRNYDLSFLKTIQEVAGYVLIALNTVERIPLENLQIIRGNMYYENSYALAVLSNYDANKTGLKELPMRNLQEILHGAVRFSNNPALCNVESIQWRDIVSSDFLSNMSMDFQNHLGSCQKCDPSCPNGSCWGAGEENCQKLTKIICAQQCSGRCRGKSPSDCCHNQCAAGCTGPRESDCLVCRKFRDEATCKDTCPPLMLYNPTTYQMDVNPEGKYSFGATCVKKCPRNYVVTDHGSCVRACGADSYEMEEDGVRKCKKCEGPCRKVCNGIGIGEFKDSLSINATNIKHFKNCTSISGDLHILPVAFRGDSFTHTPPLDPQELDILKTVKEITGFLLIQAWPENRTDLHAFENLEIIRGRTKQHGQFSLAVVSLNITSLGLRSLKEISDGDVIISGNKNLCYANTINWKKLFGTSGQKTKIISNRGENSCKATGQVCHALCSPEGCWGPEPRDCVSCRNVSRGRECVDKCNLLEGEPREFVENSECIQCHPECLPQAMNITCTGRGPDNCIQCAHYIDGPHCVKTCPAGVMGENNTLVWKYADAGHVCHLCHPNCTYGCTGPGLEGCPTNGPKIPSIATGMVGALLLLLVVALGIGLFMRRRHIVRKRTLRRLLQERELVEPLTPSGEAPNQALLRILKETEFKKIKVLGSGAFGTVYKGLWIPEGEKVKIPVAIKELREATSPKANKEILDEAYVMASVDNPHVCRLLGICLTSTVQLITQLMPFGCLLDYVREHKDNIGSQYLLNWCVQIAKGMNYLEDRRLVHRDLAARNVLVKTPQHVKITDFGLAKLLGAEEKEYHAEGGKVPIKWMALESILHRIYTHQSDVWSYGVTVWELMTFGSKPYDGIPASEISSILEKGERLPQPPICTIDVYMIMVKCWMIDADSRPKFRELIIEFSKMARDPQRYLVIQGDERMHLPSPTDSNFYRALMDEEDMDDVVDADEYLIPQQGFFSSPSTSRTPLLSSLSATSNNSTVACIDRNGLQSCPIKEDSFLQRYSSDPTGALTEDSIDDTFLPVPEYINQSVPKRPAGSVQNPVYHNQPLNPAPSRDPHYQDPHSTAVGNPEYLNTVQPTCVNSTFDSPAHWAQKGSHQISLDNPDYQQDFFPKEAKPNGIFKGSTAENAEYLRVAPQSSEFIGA
VALUE KIND: Kd (nM)

[[record]]
molecule = "CCOc1cc2ncnc(Oc3cccc(I)c3)c2cc1OCCCN1CCOCC1 [[^125I]PYK]"
experimental_target = "EGFR-TK in A431 cell membranes (Homo sapiens)"
reported_value = 51.3


---

melting point: recorded values
VALUE KIND: melting point

[[record]]
molecule = "CCOc1cc2ncnc(Oc3cccc(I)c3)c2cc1OC(C)C"
value_kind = "melting point"
reported_value = "59 to 62 °C"

[[record]]
molecule = "CCOc1cc2ncnc(Oc3cccc(I)c3)c2cc1OCCCN(C)C"
value_kind = "melting point"
reported_value = "64 to 67 °C"

[[record]]
molecule = "CCOc1cc2ncnc(Oc3cccc(I)c3)c2cc1OCCCN1CCOCC1"
value_kind = "melting point"
reported_value = "135 to 137 °C"

[[record]]
molecule = "CCOc1cc2ncnc(Oc3cccc(I)c3)c2cc1OCc1ccccc1"
value_kind = "melting point"
reported_value = "140 to 142 °C"

[[record]]
molecule = "CCOc1cc2ncnc(Oc3cccc(I)c3)c2cc1OCCCc1ccccc1"
value_kind = "melting point"
reported_value = "108 to 109 °C"

